melting point overview

[
  {
    "compound": "CS(=N)(=O)c1ccc([N+](=O)[O-])c(C(=O)C2C=CC(C(F)(F)F)=C(Oc3ccccc3)C2(Cl)[N+](=O)[O-])c1 (stereo unspecified)",
    "melting point": "62 to 63 °C"
  },
  {
    "compound": "CC(C)CCCC(C)C1CCC2C3CC=C4CC(N(CCCNC(=O)CCCCCNc5ccc([N+](=O)[O-])cc5[N+](=O)[O-])S(=O)(=O)c5ccccc5[N+](=O)[O-])CCC4(C)C3CCC12C (stereo unspecified)",
    "melting point": "80 to 82 °C"
  },
  {
    "compound": "CCC(C=CC(C)C1CCC2C3CC=C4CC(OC(=O)N(CC(COC(c5ccccc5)(c5ccccc5)c5ccccc5)C(=O)NC)C(C)C)CCC4(C)C3CCC12C)C(C)C (stereo unspecified)",
    "melting point": "92 to 93 °C"
  },
  {
    "compound": "CCCCCCCCOc1ccc(NS(=O)(=O)c2cc(C(C)(C)CC(C)(C)C)ccc2OCCCCCCCC)cc1S(=O)(=O)NCC(C)c1nn2nc(C)c(Cl)c2[nH]1 (stereo unspecified)",
    "melting point": "129 to 131 °C"
  },
  {
    "compound": "CCC(C)CNC(=O)C(CC(O)C(CC(C)C)NC(=O)C(Cc1cscn1)NC(=O)C(CC(=O)N(C)C1CCCCC1)Cc1cccc2ccccc12)C(C)(C)O (mixture of isomers)",
    "melting point": "187 to 190 °C"
  },
  {
    "compound": "O=c1cc(O)cc(-c2ccc(Cl)cc2)o1",
    "melting point": "247 to 249 °C"
  },
  {
    "compound": "Cc1ccc(C(=O)Oc2ccc3c(OC(=O)c4ccc(C)c(OCc5ccccc5)c4)c4ccccc4cc3c2OC(=O)c2ccc(C)c(OCc3ccccc3)c2)cc1OCc1ccccc1",
    "melting point": "132 to 135 °C"
  },
  {
    "compound": "CC(C)(C)c1cc(-c2nnc(NC(=N)N)o2)cc(C(C)(C)C)c1O",
    "melting point": "223 to 224 °C"
  },
  {
    "compound": "CC(=O)Oc1ccc(-c2cnc(N(S(=O)(=O)Cc3ccc(I)cc3)S(=O)(=O)Cc3ccc(I)cc3)c(Cc3ccccc3)n2)cc1",
    "melting point": "166 to 167 °C"
  },
  {
    "compound": "CC1(C)CC(O)(C#N)CC(C)(C)N1",
    "melting point": "129 to 132 °C"
  },
  {
    "compound": "CC(=O)OCC(COC(C)=O)NC(=O)c1c(I)c(C(=O)NC(COC(C)=O)COC(C)=O)c(I)c(N2C(=O)OCC2CO)c1I (stereo unspecified)",
    "melting point": "235 to 240 °C"
  },
  {
    "compound": "CCCCCCCCCCCCOC(CCCCCCCCCCC)CCOC1C(NC(C)=O)C(OCC2OC(C(=O)O)C(NC(=O)CC(O)CCCCCCCCCCC)C(OCCC(O)CCCCCCCCCCC)C2O)OC(CO)C1OP(=O)(O)O (stereo unspecified)",
    "melting point": "179 to 181 °C"
  },
  {
    "compound": "Cc1cccc(-c2sc(N)nc2-c2ccc([N+](=O)[O-])c(O)c2)n1",
    "melting point": "260 to 262 °C"
  },
  {
    "compound": "CC(C)(C)c1cc(SC(CCCC(Sc2cc(C(C)(C)C)c(O)c(C(C)(C)C)c2)Sc2cc(C(C)(C)C)c(O)c(C(C)(C)C)c2)Sc2cc(C(C)(C)C)c(O)c(C(C)(C)C)c2)cc(C(C)(C)C)c1O",
    "melting point": "148 to 153 °C"
  },
  {
    "compound": "CCN(c1nc(OCCOC(=O)CCC(=O)OCCOc2nc(N(CC)C3CC(C)(C)NC(C)(C)C3)nc(N(CC)C3CC(C)(C)NC(C)(C)C3)n2)nc(N(CC)C2CC(C)(C)NC(C)(C)C2)n1)C1CC(C)(C)NC(C)(C)C1",
    "melting point": "85 °C"
  },
  {
    "compound": "CCCCOC(=O)Nc1nc(CN(C)C(=O)N[C@H](C(=O)N[C@@H](Cc2ccccc2)C[C@H](O)[C@H](Cc2ccccc2)NC(=O)[C@@H](NC(=O)N(C)Cc2csc(NC(=O)OCCCC)n2)C(C)C)C(C)C)cs1",
    "melting point": "115 to 120 °C"
  },
  {
    "compound": "O=C(Oc1c(I)cc(I)c(Br)c1I)C(F)(F)C(F)(Br)C(F)(F)Br (stereo unspecified)",
    "melting point": "56 to 57 °C"
  },
  {
    "compound": "CCCCCCCCCCCCCCCCCCSc1nc(SCCCCCCCCCCCCCCCCCC)nc(-c2cc(C(C)(C)C)c(O)c(C(C)(C)C)c2)n1",
    "melting point": "87 to 89 °C"
  },
  {
    "compound": "N=C(NC(=O)OCc1ccccc1)N(CCCC(NC(=O)C(Cc1ccccc1)NC(=O)OCc1ccccc1)C(=O)Oc1cccc2ccccc12)C(=O)OCc1ccccc1 (stereo unspecified)",
    "melting point": "125 to 130 °C"
  },
  {
    "compound": "CCOC(=O)Cc1ccc(-c2nc(COc3ccc(COc4nn(-c5ccccc5)cc4/C=C/c4nc(N5CCN(C(=O)OC(C)(C)C)CC5)sc4C)cc3OC)c(C)o2)cc1",
    "melting point": "112 to 114 °C"
  },
  {
    "compound": "CC(C)[C@H](NC(=O)OCc1ccccn1)C(=O)N[C@@H](Cc1ccccc1)[C@H](O)[C@@H](O)[C@H](Cc1ccccc1)NC(=O)[C@@H](NC(=O)N(C)Cc1csc(N)n1)C(C)C",
    "melting point": "188 to 192 °C"
  },
  {
    "compound": "O=C(Nc1ccc(Cl)cc1)c1ccc(-c2nn[nH]n2)c(NC(=O)c2sc3ccccc3c2Cl)c1",
    "melting point": "> 250 °C"
  },
  {
    "compound": "CCCNC(Cc1cc(I)c(Oc2cc(I)c(O)c(I)c2)c(I)c1)C(=O)O (stereo unspecified)",
    "melting point": "212 to 213 °C"
  },
  {
    "compound": "CSC(=NS(=O)(=O)c1ccccc1)c1ccccc1",
    "melting point": "150 to 155 °C"
  },
  {
    "compound": "O=S(=O)(CCCCCOc1ccc(C2=C(c3ccc(OC4CCCCO4)cc3)CCCc3cc(OC4CCCCO4)ccc32)cc1)CCCC(F)(F)C(F)(F)F (stereo unspecified)",
    "melting point": "108 to 110 °C"
  },
  {
    "compound": "[C-]#[N+]Cc1c(OC)cc(OC)cc1OC",
    "melting point": "107 to 109 °C"
  }
]

// data source = a melting point compilation (Tetko et al.)
